# Test system: NCI-H522 lung
# assay-details: NCI tumour cell line growth inhibition, 48 h; in the data active = GI50 below about 0.43 µM; inactive = the rest
Reply using exactly one outcome from active, inactive

These recorded examples may help you get a feel for the data.
{"columns": ["compound", "qualitative-label"],
 "data": [
  ["COc1cccc2c1C(=O)c1c(O)c3c(c(O)c1C2=O)C[C@@](O)(C(=O)CO)C[C@@H]3OC1CC2C(OCN2CN2COC3C(C)OC(O[C@H]4C[C@](O)(C(=O)CO)Cc5c(O)c6c(c(O)c54)C(=O)c4c(OC)cccc4C6=O)CC32)C(C)O1 (stereo partly drawn)", "active"],
  ["O=S(=O)([O-])c1ccc(C=Nc2ccccc2)c([O-])c1.O=S(=O)([O-])c1ccc(C=Nc2ccccc2)c([O-])c1.[Co+2]", "inactive"]
]}

Could you now look at the following compound, please?
## Input Dear all, I need the recorded test outcome for COc1cc(/C=C/C(=O)c2cccc(-n3cc(-c4ccccc4)[nH]c3=O)c2)ccc1O , thank you.
## Output inactive

Taken from PubChem BioAssay (NCI).
